- system.name: 5-HT2A receptor (Homo sapiens, UniProt P28223)
- Construct: purchased PerkinElmer
- Sequence (P28223 whole entry): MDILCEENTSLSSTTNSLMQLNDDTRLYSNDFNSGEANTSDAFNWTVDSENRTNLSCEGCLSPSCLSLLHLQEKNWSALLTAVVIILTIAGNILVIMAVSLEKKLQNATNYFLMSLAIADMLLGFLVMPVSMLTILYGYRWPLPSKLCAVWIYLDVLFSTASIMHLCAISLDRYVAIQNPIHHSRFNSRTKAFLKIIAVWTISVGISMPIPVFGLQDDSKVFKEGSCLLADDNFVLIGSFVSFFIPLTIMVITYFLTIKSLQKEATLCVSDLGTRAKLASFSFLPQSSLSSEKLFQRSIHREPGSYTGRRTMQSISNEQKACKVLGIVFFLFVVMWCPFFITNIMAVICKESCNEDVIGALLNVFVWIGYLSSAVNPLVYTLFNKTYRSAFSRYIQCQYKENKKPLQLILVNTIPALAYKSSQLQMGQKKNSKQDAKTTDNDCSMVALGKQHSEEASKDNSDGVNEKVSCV
- test.method.notes: Radioligand binding assay, serotoninergic 5-HT2A receptors
- cond: binding assay result in %, Table 5a
inhibition at 1 µM listing for selected compounds.
quantity: inhibition at 1 µM (%)

> print(dat)
                                    compound                               system.name  quantitative.result
 1  O=S(=O)(NC1CN(CCOc2cccc3[nH]ccc23)C1)c1cccc(Cl)c1  5-HT2A receptor (Homo sapiens, UniProt P28223)                   80
 2  N#Cc1ccc(S(=O)(=O)NC2CCN(CCCc3noc4cc(F)ccc34)C2)cc1 (stereo not drawn)  5-HT2A receptor (Homo sapiens, UniProt P28223)                   80
 3  O=S(=O)(NCC1CN(CCOc2cccc3c2OCCO3)C1)c1ccc(-c2ccccc2)cc1  5-HT2A receptor (Homo sapiens, UniProt P28223)                   73
 4  O=S(=O)(NCC1CN(CCCc2c[nH]c3ccc(F)cc23)C1)c1ccc2ccccc2c1  5-HT2A receptor (Homo sapiens, UniProt P28223)                   97
 5  O=S(=O)(NCC1CCN(CCOc2cccc3ccccc23)C1)c1cc2ccccc2s1 (stereo not drawn)  5-HT2A receptor (Homo sapiens, UniProt P28223)                   82
 6  O=S(=O)(N[C@H]1CCN(CCCc2noc3cc(F)ccc23)C1)c1ccc2cc(Cl)ccc2c1  5-HT2A receptor (Homo sapiens, UniProt P28223)                   98
 7  O=S(=O)(NC1CCN(CCCc2c[nH]c3ccc(Cl)cc23)C1)c1ccccc1 (stereo not drawn)  5-HT2A receptor (Homo sapiens, UniProt P28223)                   75
 8  Cc1c(S(=O)(=O)NC2CCN(CCCc3noc4cc(F)ccc34)CC2)sc2ccc(Cl)cc12  5-HT2A receptor (Homo sapiens, UniProt P28223)                   97
 9  O=S(=O)(NCC1CCN(CCOc2cccc3ccccc23)C1)c1ccc(F)c(F)c1 (stereo not drawn)  5-HT2A receptor (Homo sapiens, UniProt P28223)                   91
10  O=S(=O)(NCC1CN(CCOc2cccc3c2OCCO3)C1)c1cccs1  5-HT2A receptor (Homo sapiens, UniProt P28223)                   76
11  O=S(=O)(NCC1CN(CCCc2noc3cc(F)ccc23)C1)c1ccc2scnc2c1  5-HT2A receptor (Homo sapiens, UniProt P28223)                   97
12  O=S(=O)(NC1CCN(CCCc2noc3cc(F)ccc23)CC1)c1csc2ccccc12  5-HT2A receptor (Homo sapiens, UniProt P28223)                  102
13  O=S(=O)(NC1CN(CCOc2cccc3[nH]ccc23)C1)c1ccc(F)cc1  5-HT2A receptor (Homo sapiens, UniProt P28223)                   34
14  Cc1c(S(=O)(=O)N[C@@H]2CCN(CCCc3noc4cc(F)ccc34)C2)sc2ccc(F)cc12  5-HT2A receptor (Homo sapiens, UniProt P28223)                   99
15  O=S(=O)(NC1CCN(CCCc2c[nH]c3ccc(Cl)cc23)C1)c1ccc(Cl)cc1 (stereo not drawn)  5-HT2A receptor (Homo sapiens, UniProt P28223)                   64
16  O=S(=O)(NCC1CN(CCOc2cccc3c2OCCO3)C1)c1ccc(C(F)(F)F)cc1  5-HT2A receptor (Homo sapiens, UniProt P28223)                   68
17  O=S(=O)(NCC1CN(CCOc2cccc3c2OCCO3)C1)c1cccc2ccccc12  5-HT2A receptor (Homo sapiens, UniProt P28223)                   35
18  O=S(=O)(NCC1CCN(CCOc2cccc3c2OCCO3)C1)c1ccc2c(c1)CCO2 (stereo not drawn)  5-HT2A receptor (Homo sapiens, UniProt P28223)                   81
19  COc1cccc(S(=O)(=O)NC2CCN(CCCc3noc4cc(F)ccc34)C2)c1 (stereo not drawn)  5-HT2A receptor (Homo sapiens, UniProt P28223)                   94
20  O=S(=O)(NCC1CCN(CCCc2noc3cc(F)ccc23)C1)c1ccc(Cl)c(Cl)c1 (stereo not drawn)  5-HT2A receptor (Homo sapiens, UniProt P28223)                   99
21  O=S(=O)(NCC1CCN(CCOc2cccc3c2OCCO3)C1)c1ccc(F)c(Cl)c1 (stereo not drawn)  5-HT2A receptor (Homo sapiens, UniProt P28223)                   72
22  O=S(=O)(NC1CCN(CCCc2noc3cc(F)ccc23)C1)c1ccc(Cl)cc1 (stereo not drawn)  5-HT2A receptor (Homo sapiens, UniProt P28223)                  100
23  Cc1c(S(=O)(=O)NCC2CN(CCOc3cccc4ccccc34)C2)sc2ccc(Cl)cc12  5-HT2A receptor (Homo sapiens, UniProt P28223)                   95
24  O=S(=O)(NC1CCN(CCCc2noc3cc(F)ccc23)C1)c1ccc(F)cc1 (stereo not drawn)  5-HT2A receptor (Homo sapiens, UniProt P28223)                   97

###

- Tested on: α1 adrenergic receptors (rat cerebral cortex)
- test.method.notes: Radioligand binding assay, adrenergic α1 receptors
- cond: test compound 1×10^−6 M
Below: a set of entries, each annotated with reported α1 [%].
quantity: α1 [%] (%)

> print(dat)
                                    compound                               system.name  quantitative.result
 1  O=S(=O)(NCC1CN(CCOc2cccc3ccccc23)C1)c1ccc2cc(Cl)ccc2c1  α1 adrenergic receptors (rat cerebral cortex)                   15
 2  O=S(=O)(NC1CCN(CCCc2c[nH]c3ccc(Cl)cc23)C1)c1cccc(Cl)c1 (stereo not shown)  α1 adrenergic receptors (rat cerebral cortex)                   51
 3  O=S(=O)(N[C@@H]1CCN(CCCc2noc3cc(F)ccc23)C1)c1ccc2cc(Cl)ccc2c1  α1 adrenergic receptors (rat cerebral cortex)                   85
 4  O=S(=O)(NCC1CN(CCCc2noc3cc(F)ccc23)C1)c1cc2ccccc2s1  α1 adrenergic receptors (rat cerebral cortex)                   93
 5  O=S(=O)(NC1CCN(CCCc2c[nH]c3ccc(Cl)cc23)C1)c1ccc2ccccc2c1 (stereo not shown)  α1 adrenergic receptors (rat cerebral cortex)                   18
 6  O=S(=O)(NCC1CCN(CCOc2cccc3c2OCCO3)C1)c1cccc(F)c1 (stereo not shown)  α1 adrenergic receptors (rat cerebral cortex)                   77
 7  O=S(=O)(NC1CCN(CCCc2noc3cc(F)ccc23)C1)c1ccc(Cl)c(F)c1 (stereo not shown)  α1 adrenergic receptors (rat cerebral cortex)                   70
 8  O=S(=O)(N[C@H]1CCN(CCCc2noc3cc(F)ccc23)C1)c1cc2ccccc2o1  α1 adrenergic receptors (rat cerebral cortex)                   89
 9  O=S(=O)(NCC1CN(CCOc2cccc3ccccc23)C1)c1cccc2ccccc12  α1 adrenergic receptors (rat cerebral cortex)                   31
10  O=S(=O)(NC1CCN(CCOc2cccc3[nH]ccc23)C1)c1ccc2ccccc2c1 (stereo not shown)  α1 adrenergic receptors (rat cerebral cortex)                   90
11  Cc1c(S(=O)(=O)NCC2CCN(CCOc3cccc4ccccc34)C2)sc2ccc(F)cc12 (stereo not shown)  α1 adrenergic receptors (rat cerebral cortex)                   −1
12  O=S(=O)(NC1CCN(CCCc2noc3cc(F)ccc23)CC1)c1cccc2ccccc12  α1 adrenergic receptors (rat cerebral cortex)                   91
13  O=S(=O)(N[C@H]1CCN(CCCc2noc3cc(F)ccc23)C1)c1cc2ccccc2s1  α1 adrenergic receptors (rat cerebral cortex)                   93
14  O=S(=O)(NC1CCN(CCOc2nsc3ccccc23)C1)c1ccc2ccccc2c1 (stereo not shown)  α1 adrenergic receptors (rat cerebral cortex)                   29
15  O=S(=O)(NC1CCN(CCCc2noc3cc(F)ccc23)C1)c1ccc2ccccc2c1 (stereo not shown)  α1 adrenergic receptors (rat cerebral cortex)                   95
16  O=S(=O)(NC1CCN(CCCc2noc3cc(F)ccc23)C1)c1cc2ccc(F)cc2s1 (stereo not shown)  α1 adrenergic receptors (rat cerebral cortex)                   92
17  Cn1ccc2cc(S(=O)(=O)NCC3CCN(CCOc4cccc5c4OCCO5)C3)ccc21 (stereo not shown)  α1 adrenergic receptors (rat cerebral cortex)                   69
18  O=S(=O)(NC1CN(CCOc2cccc3c2OCCO3)C1)c1cccc(Cl)c1  α1 adrenergic receptors (rat cerebral cortex)                  −15
19  O=S(=O)(NC1CCN(CCOc2cccc3ccccc23)C1)c1cccc(O)c1 (stereo not shown)  α1 adrenergic receptors (rat cerebral cortex)                   24
20  Cc1c(S(=O)(=O)N[C@H]2CCN(CCCc3noc4cc(F)ccc34)C2)sc2ccc(Cl)cc12  α1 adrenergic receptors (rat cerebral cortex)                   71
21  O=S(=O)(NCC1CN(CCOc2cccc3c2OCCO3)C1)c1ccc(Cl)s1  α1 adrenergic receptors (rat cerebral cortex)                   88
22  O=C1Cc2cc(S(=O)(=O)NCC3CN(CCOc4cccc5c4OCCO5)C3)ccc2N1  α1 adrenergic receptors (rat cerebral cortex)                   71
23  O=S(=O)(NCC1CN(CCOc2cccc3ccccc23)C1)c1cc2ccccc2s1  α1 adrenergic receptors (rat cerebral cortex)                   27
24  O=S(=O)(NC1CCN(CCCc2noc3cc(F)ccc23)CC1)c1ccc2ccccc2c1  α1 adrenergic receptors (rat cerebral cortex)                   99
25  O=S(=O)(NCC1CCN(CCOc2cccc3ccccc23)C1)c1cccc(O)c1 (stereo not shown)  α1 adrenergic receptors (rat cerebral cortex)                   43
26  O=S(=O)(NCC1CCN(CCOc2cccc3ccccc23)C1)c1ccc(F)c(F)c1 (stereo not shown)  α1 adrenergic receptors (rat cerebral cortex)                   37
27  O=S(=O)(NCC1CN(CCOc2cccc3c2OCCO3)C1)c1ccc(-c2ccccc2)cc1  α1 adrenergic receptors (rat cerebral cortex)                   20
28  Cn1ccc2cc(S(=O)(=O)NCC3CN(CCCc4noc5cc(F)ccc45)C3)ccc21  α1 adrenergic receptors (rat cerebral cortex)                   98
29  O=S(=O)(NCC1CN(CCOc2cccc3c2OCCO3)C1)c1csc2ccccc12  α1 adrenergic receptors (rat cerebral cortex)                   86
30  O=S(=O)(NC1CCN(CCOc2cccc3c2OCCO3)C1)c1ccccc1 (stereo not shown)  α1 adrenergic receptors (rat cerebral cortex)                   60
31  O=S(=O)(NCC1CCN(CCOc2cccc3c2OCCO3)C1)c1ccc(F)cc1 (stereo not shown)  α1 adrenergic receptors (rat cerebral cortex)                   83
